Measured mass density of individual entries
- details: 333.15 K; 45000 kPa; Liquid
Please state the figure in kg/m3; there is no need to write the unit.

molecule	test result
CCCCCCCCCCCCCC[P+](CCCCCC)(CCCCCC)CCCCCC.[Cl-] [trihexyl(tetradecyl)phosphonium chloride]	892

QUERY: For the molecule shown here, CCCCCCCCCCCCCC[P+](CCCCCC)(CCCCCC)CCCCCC.CS(=O)(=O)[O-] [trihexyltetradecylphosphonium methanesulfonate] , give the reported mass density.
RESULT: 932.7

QUERY: Reported mass density, molecule CCCCCCCCCCCCCC[P+](CCCCCC)(CCCCCC)CCCCCC.N#C[N-]C#N [tetradecyl(trihexyl)phosphonium dicyanamide] : ____
RESULT: 900.5

QUERY: Data request, read-out mass density, for CCCCCCCCCCCCCC[P+](CCCCCC)(CCCCCC)CCCCCC.O=S(=O)([N-]S(=O)(=O)C(F)(F)F)C(F)(F)F
RESULT: 1068.9

QUERY: Param item = CCCCCCCCCCCCCC[P+](CCCCCC)(CCCCCC)CCCCCC.[Br-] [tetradecyltrihexylphosphonium bromide] ; retrieve measured mass density.
RESULT: 957.3

---

Measured mass density of individual entries
- details: 313.15 K; 4000 kPa; Liquid
Numbers only; they are read as kg/m3.

// solved cases for mass density follow
compound	mass density (kg/m3)
CCCCCCCCCCCCCC[P+](CCCCCC)(CCCCCC)CCCCCC.O=S(=O)([N-]S(=O)(=O)C(F)(F)F)C(F)(F)F	1057.9
CCCCCCCCCCCCCC[P+](CCCCCC)(CCCCCC)CCCCCC.[Br-] [tetradecyltrihexylphosphonium bromide]	946.4
CCCCCCCCCCCCCC[P+](CCCCCC)(CCCCCC)CCCCCC.CS(=O)(=O)[O-] [trihexyltetradecylphosphonium methanesulfonate]	921.9

QUERY: What mass density value was documented for this compound, CCCCCCCCCCCCCC[P+](CCCCCC)(CCCCCC)CCCCCC.[Cl-] [trihexyl(tetradecyl)phosphonium chloride] ?
RESULT: 882.7

QUERY: Which mass density reading was recorded for the compound CCCCCCCCCCCCCC[P+](CCCCCC)(CCCCCC)CCCCCC.N#C[N-]C#N [tetradecyl(trihexyl)phosphonium dicyanamide] ?
RESULT: 892.1

---

- details: 313.15 K; 15000 kPa; Liquid
± gives the expanded uncertainty stated by the source.
quantity kind: mass density

Here's what some known entries look like.
compound	mass density
CCCCCCCCCCCCCC[P+](CCCCCC)(CCCCCC)CCCCCC.CS(=O)(=O)[O-] [trihexyltetradecylphosphonium methanesulfonate]	928.1 ± 1 kg/m3
CCCCCCCCCCCCCC[P+](CCCCCC)(CCCCCC)CCCCCC.[Br-] [tetradecyltrihexylphosphonium bromide]	952.7 ± 0.8 kg/m3
CCCCCCCCCCCCCC[P+](CCCCCC)(CCCCCC)CCCCCC.[Cl-] [trihexyl(tetradecyl)phosphonium chloride]	888.4 ± 1.3 kg/m3
CCCCCCCCCCCCCC[P+](CCCCCC)(CCCCCC)CCCCCC.O=S(=O)([N-]S(=O)(=O)C(F)(F)F)C(F)(F)F	1064.9 ± 1 kg/m3

Here is the next item to consider.
QUERY: Look at this compound and give its reported mass density. CCCCCCCCCCCCCC[P+](CCCCCC)(CCCCCC)CCCCCC.N#C[N-]C#N [tetradecyl(trihexyl)phosphonium dicyanamide]
RESULT: 897.5 ± 1.2 kg/m3
